Run Description: small molecules captured by biotinylated probe aFST – biochemical, small-molecule microarray, fluorescence 635/667, stem cell growth factor project, primary screen (AID 1086);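 note: score merges 667 nm fluorescence with signal-to-noise of each printed compound spot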
Conditions Used: higher = more signal
Value Type: composite z-score

| Molecule | Observed Measurement |
| --- | --- |
| CCOC(=O)N1C(c2ccc(OCCCO)cc2)=NC(C(=O)OC)N1C(=O)OCC (centres undefined) | 0.424 |
| O=C(N1CCCCC1)[C@]1(CCS(=O)(=O)c2ccccc2)N=C(c2ccc(OCCCO)cc2)O[C@@H]1c1ccccc1 | 0.636 |
| C=CCC(OC(C)=O)[C@@H]1[C@@H](N(Cc2ccc(-c3cccc(C(F)(F)F)c3)o2)C(=O)Cc2ccc(OC)cc2)c2cc(OCCCO)ccc2N1C(=O)Cc1ccc(OC)cc1 (some centres undefined) | -0.239 |
| CC(C)NC(=O)[C@@H]1c2ccccc2C(=O)N(C2CCCCC2)[C@H]1c1ccc(CO)cc1 | 0.333 |

---

Run Description: JC-1 mitochondrial signal, unstimulated adipocytes – cell-based, JC-1 fluorescence, 3T3-L1 adipocytes, 24 h, 100 nL compound, profiling panel (AID 1168); note: test concentration not given here
Conditions Used: JC-1 mitochondrial fluorescence, higher = more signal, called active from +8 up or from −8 down
Assign Fulfilled to entries whose z-score meets or exceeds -0.04; assign Not fulfilled to the rest.

| Molecule | Group Label |
| --- | --- |
| COC(=O)[C@@]1(Cc2ccc(OC)cc2)[C@H]2c3cc(C(=O)N4CCCC4)n(C[C@H](O)CO)c3C[C@H]2CN1C(=O)c1ccccc1 | Fulfilled |
| COc1ccccc1CN1C(=O)c2ccccc2[C@](Cc2ccccc2I)(C(=O)NCc2ccccc2)[C@@H]1c1ccc(CO)cc1 | Fulfilled |
| CCCNC(=O)[C@@]1(C)c2ccccc2C(=O)N(Cc2cc(C(F)(F)F)cc(C(F)(F)F)c2)[C@H]1c1ccc(CO)cc1 | Not fulfilled |
| [N-]=[N+]=NCc1ccccc1C[C@]1(C(=O)NCC(O)CO)COC(c2ccc(OCCCO)cc2)=N1 (some centres not stated) | Not fulfilled |
| O=C(CS)NCCCCCCNC(=O)[C@H]1C[C@H]2C(=O)N3CCC[C@H]3C(=O)N2[C@H]1c1ccc(O)cc1 | Not fulfilled |
| CCCNC(=O)[C@@]1(C)c2ccccc2C(=O)N(Cc2cc(F)cc(C(F)(F)F)c2)[C@H]1c1ccc(CO)cc1 | Fulfilled |
| COC(=O)[C@@]1(Cc2ccc(OC)cc2)[C@H]2c3cc(C(=O)N(C)C)n(CCSCCO)c3C[C@H]2CN1C(=O)c1ccccc1 | Not fulfilled |

---

Run Description: JC-1 mitochondrial signal, unstimulated MM1S myeloma – cell-based, JC-1 fluorescence, 24 h, 100 nL compound, profiling panel (AID 1170); note: test concentration not given here
Conditions Used: MM1S mitochondrial potential, higher = more signal

| Compound | z-score |
| --- | --- |
| COC(=O)[C@@]1(Cc2ccc(OC)cc2)[C@H]2c3cc(C(=O)N4CCCC4)n(CCc4ccccn4)c3C[C@H]2CN1C(=O)c1ccccc1 | 0.00382 |
| Cc1ccc(S[C@]2(C(=O)NCC(F)(F)F)CC(=O)N(C3Cc4ccccc4C3)[C@@H]2c2ccc(CO)cc2I)cc1 | -1.4 |
| C=C[C@H](C)[C@H](O)c1ccc(OCCO)cc1 | -0.339 |
| CCN(CC)c1ccc(N2CC=CC34O[C@@H]5/C=C\CCCOC(=O)C5[C@H]3C(=O)N(CCCO)[C@@H]4C2=O)cc1 (stereo partly specified) | 0.918 |
| Cc1ccc(F)cc1S(=O)(=O)N[C@@H]1CCN(Cc2ccc(C(F)(F)F)cc2)C1 | -1.75 |
| CC(C)[C@H]1COC(=O)N1C(=O)[C@H]1[C@@H](c2ccccc2)N(c2ccccc2)O[C@@H]1C | -1.46 |
| COc1ccc([Si](C)(C)[C@H]2[C@H](CC(=O)N3CCC[C@H]3CO)O[C@@]3(C(=O)N(Cc4cccc(N5CCC5=O)c4)c4ccccc43)[C@@H]2C)cc1 | 0.619 |
| CCCNC(=O)[C@@]1(C)c2ccccc2C(=O)N(Cc2cc(F)cc(C(F)(F)F)c2)[C@H]1c1ccc(CO)cc1 | -0.749 |
| O=C1C2C=CC(C(O)c3ccccn3)N(Nc3ccccc3F)C2C(=O)N1c1ccccc1 (stereo unspecified) | -0.541 |
| O=C1OCC=C[C@H]2OC34C=CCN(Cc5ccccc5)C(=O)[C@H]3N(CCCO)C(=O)[C@@H]4[C@@H]12 (stereo partly specified) | 0.252 |
| Cc1ccc(S[C@]2(C(=O)NCCN3CCOCC3)CC(=O)N(C3CCCCC3)[C@@H]2c2ccc(CO)cc2)cc1 | 0.485 |
| CCCCCCCCCCC(O)C1C=CC2C(=O)N(c3ccccc3)C(=O)C2N1Nc1ccc([N+](=O)[O-])cc1 (stereo unspecified) | -1.66 |
| COCCCNC(=O)[C@]1(Cc2ccccc2N=[N+]=[N-])N=C(c2ccc(OCCCO)cc2)O[C@@H]1c1ccccc1CN=[N+]=[N-] | -0.495 |
| Cc1ccc(S[C@]2(C(=O)NCc3ccccc3)CC(=O)N(Cc3cc(C(F)(F)F)cc(C(F)(F)F)c3)[C@@H]2c2ccc(CO)cc2)cc1 | -0.476 |
| COC(=O)[C@@]1(Cc2ccc(OC)cc2)[C@H]2c3cc(C(=O)N4CCCC4)n(CCN4CCOCC4)c3C[C@H]2CN1C(=O)c1ccccc1 | -0.936 |
| Cc1ccc(N2C(=O)c3ccccc3[C@](C)(C(=O)NCCN3CCOCC3)[C@@H]2c2ccc(CO)cc2)nc1 | 0.0375 |
